Values were extracted from the supplement of paper PMC6607015.

test system: HeLa MZ; assay: whole-cell filipin (free cholesterol) integrated intensity, Z-score; higher = more cholesterol staining; conditions: compound concentration in added solution (µM; 5 µl added to 20 µl cells): 10; 18 h
Structures can show the parent of a compound that is named as a salt.
Kindly state whole-cell filipin (z-score) for each of the entries shown.
Please reply with the value in numeric form only.

Record summary for O=C([O-])c1ccccc1-c1c2cc(Br)c(=O)cc-2oc2[c]([Hg+])c([O-])c(Br)cc12.[Na+].[Na+].[OH-] [Merbromin] : reported whole-cell filipin (z-score) = -0.654

Record summary for O=c1[nH]c2ccccc2n1CCCN1CCC(n2c(=O)[nH]c3cc(Cl)ccc32)CC1 [Domperidone] : reported whole-cell filipin (z-score) = 2.38

Record summary for O=P1(NCCCl)OCCCN1CCCl (centres undefined) [Ifosfamide] : reported whole-cell filipin (z-score) = -0.489

Record summary for C[N+]1([O-])[C@@H]2C[C@@H](OC(=O)[C@H](CO)c3ccccc3)C[C@H]1[C@@H]1O[C@@H]12 (some centres undefined) [Scopolamin-N-oxide hydrobromide] : reported whole-cell filipin (z-score) = -0.711
